- procedure_summary: activators of inactive X chromosome reactivation, primary screen, imaging, XiGFP fibroblasts, GFP high-content imaging, set 2 (AID 743238);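 further: 0% = median of on-plate neutral control wells and 100% = ellipticine 6 µM median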
- assay_setup: XiGFP mouse fibroblasts, % GFP-positive cells imaging, 3 d; at 7.58 µM; stronger effect = higher value; cells co-treated with 5-aza-dC sensitizer; scaled so ellipticine positive control = 100%
Hit rate of the full screen: of about 360,000 compounds, about 200 (0.056%) were called active. This is one part of a sample in which actives are shown more often than they occur.
readout_label: activation (%)
Value expressed in %; do not type the unit.

// field: activation; key: COc1ccccc1NC(=O)N1CC(=O)N2[C@H](CO)[C@@H](c3ccc(C#Cc4ccc(F)cc4)cc3)[C@H]2C1 ; value = -0.0395

Field activation (entry C[C@@H]1CN([C@H](C)CO)C(=O)c2cc(-c3ccccc3F)cnc2O[C@H]1CN(C)C(=O)CN(C)C ) reads 3.17

The compound identified as CCCNC(=O)N1C[C@@H](C)[C@@H](OC)CN(C)C(=O)c2ccc(NC(=O)C3CCC3)cc2OC[C@@H]1C registered its activation at -0.29

Recorded activation (compound O=C(C[C@@H]1CC[C@H]2[C@@H](COC[C@@H](O)CN2CC2CC2)O1)NCc1ccc(Cl)cc1 ): 0.122

activation reported for this compound C[C@H](CO)N1C[C@H](C)[C@H](CN(C)S(=O)(=O)c2ccc(Cl)cc2)Oc2ccc(NC(=O)C3CCCCC3)cc2C1=O : -0.051

Form: compound = Cc1noc(C)c1NC(=O)N(C)C[C@@H]1Oc2c(NC(=O)C3CCCCC3)cccc2C(=O)N([C@H](C)CO)C[C@@H]1C ; activation = -0.974

Form field activation, entry CN1C(=O)c2cc(NC(=O)c3ccc(Cl)cc3)ccc2OC[C@H]2O[C@H](CC(=O)O)CC[C@H]21 : 0.521

For this compound ( C[C@H]1CN([C@@H](C)CO)C(=O)CCCn2cc(nn2)CO[C@H]1CN(C)C(=O)Nc1ccc(F)cc1 ), measured activation is -0.396
